Test system: RARb homodimer (NR concentration 270 nM)
Assay Text: PBM binding z-score (relative to random genomic background probes); higher = stronger binding; sequences stand for … in GC…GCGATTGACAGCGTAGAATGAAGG
Items are presented alongside their recorded PBM binding z-score.
// response body must contain only the number

Before answering, review these 3 worked examples.
# Ordered Residues, Assayed Target, PBM binding z-score
data = [
    ("GATACAGGGTCAGCTAGAGACCAGAGTATGGAAA", "RARb homodimer (NR concentration 270 nM)", 2.5),
    ("CGTCCAAGGTGAATGCTAGGTCAGTGAAAGCATT", "RARb homodimer (NR concentration 270 nM)", 2.81),
    ("CCTAGGTGGTCAAGGTCACACACGCTATAGGTAC", "RARb homodimer (NR concentration 270 nM)", 4.16),
]

// PBM binding z-score (RARb homodimer (NR concentration 270 nM)) for ATCTCTATGTAAAGATAGTTCAGTGAATGCAAAT = 0.692

// returns PBM binding z-score for TCGAGTAGGTTAGGGGCATCCAGAATGGCGTCGA with RARb homodimer (NR concentration 270 nM); value = 1.01

Data provenance is the supplement of paper PMC6555819.
